test_target: T1, human G-protein-coupled receptor family C group 5 member D (GPRC5D) (human, UniProt Q9NZD1 1-345)
T1 construct: whole, on cells; also called human GPRC5D protein
T1 sequence (Q9NZD1 whole entry): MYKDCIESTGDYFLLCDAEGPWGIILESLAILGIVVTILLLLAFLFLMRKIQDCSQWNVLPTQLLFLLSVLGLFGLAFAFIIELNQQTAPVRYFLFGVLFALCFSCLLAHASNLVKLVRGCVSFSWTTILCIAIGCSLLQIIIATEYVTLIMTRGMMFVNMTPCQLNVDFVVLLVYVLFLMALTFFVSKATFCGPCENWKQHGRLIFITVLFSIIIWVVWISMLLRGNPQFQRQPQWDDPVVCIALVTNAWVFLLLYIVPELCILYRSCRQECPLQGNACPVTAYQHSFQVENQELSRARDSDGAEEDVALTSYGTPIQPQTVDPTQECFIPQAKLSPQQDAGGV
assay_name: FACS, CHO-K1/human GPRC5D
measured_quantity: Top

Check out these entries, answers already filled in.
- binder: "34-H1L1 (antibody, V domains shown, humanized 34D3H1, VH v1 x VL v1) VH: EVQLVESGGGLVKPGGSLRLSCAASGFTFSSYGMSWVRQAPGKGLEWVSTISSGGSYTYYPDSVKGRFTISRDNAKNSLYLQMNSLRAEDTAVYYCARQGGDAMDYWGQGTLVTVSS VL: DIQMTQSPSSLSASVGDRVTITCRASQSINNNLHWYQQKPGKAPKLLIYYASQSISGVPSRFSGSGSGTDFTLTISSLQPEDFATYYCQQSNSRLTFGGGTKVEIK"
  obs_value: 119000
- binder: "6G10D9-XI (antibody, V domains shown, also called 6G10D9 (chimeric); 6G1009-X1) VH: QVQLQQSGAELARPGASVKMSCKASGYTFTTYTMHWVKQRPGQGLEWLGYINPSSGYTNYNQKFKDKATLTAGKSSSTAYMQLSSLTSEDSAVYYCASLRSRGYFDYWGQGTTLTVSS VL: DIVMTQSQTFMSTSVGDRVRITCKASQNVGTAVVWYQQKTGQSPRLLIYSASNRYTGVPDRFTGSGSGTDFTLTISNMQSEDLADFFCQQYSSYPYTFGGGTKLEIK"
  obs_value: 104000

Alright, here's another binder for you.
# Top of 34-XI (antibody, V domains shown, also called 34D3H1 (chimeric)) VH: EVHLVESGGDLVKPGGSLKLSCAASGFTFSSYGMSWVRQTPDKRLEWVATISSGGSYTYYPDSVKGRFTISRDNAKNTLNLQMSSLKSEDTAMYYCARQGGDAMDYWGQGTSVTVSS VL: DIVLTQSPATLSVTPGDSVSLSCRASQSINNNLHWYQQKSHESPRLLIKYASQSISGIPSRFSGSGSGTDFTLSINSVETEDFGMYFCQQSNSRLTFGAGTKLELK = 118000

All values here come from patent US12281162.
